# System: Escherichia coli
# assay.details: Antibacterial activity against Escherichia coli MTCC 16521 after 24 hrs by serial dilution method
# Format: functional
# experimental.context: MTCC 16521, 24 h
assay.readout: MIC (µM)
The figure you give is taken to be in µM; do not add the unit.

> print(dat)
                                   molecule  assay.readout  measured.result
1  O=C(/C=C/c1c(OCc2cn(-c3ccc(F)cc3)nn2)ccc2ccccc12)c1ccc(Br)cc1            MIC             23.7
2  COc1ccc(C(=O)/C=C/c2c(OCc3cn(Cc4cccc(F)c4)nn3)ccc3ccccc23)cc1            MIC             12.6
3  COc1ccc(C(=O)/C=C/c2c(OCc3cn(-c4cccc(C(F)(F)F)c4)nn3)ccc3ccccc23)cc1            MIC             11.8

Now examine the next entry.
### Prompt Output MIC of `COc1ccc(C(=O)/C=C/c2c(OCc3cn(Cc4ccccc4F)nn3)ccc3ccccc23)cc1`
### Response 6.3

====

# Tested on: Escherichia coli
# assay.details: Antibacterial activity against Escherichia coli MTCC 16521 after 24 hrs by serial dilution method
# Type: functional
# experimental.context: MTCC 16521, 24 h
assay.readout: MIC (µM)
Answer format: numeric, µM implied, no suffix.

Below, 3 compounds whose answers are already recorded.
> print(dat)
                              smiles.string  units.of.measure  measured.result
1  COc1ccc(C(=O)/C=C/c2c(OCc3cn(-c4ccc(F)cc4)nn3)ccc3ccccc23)cc1                µM               13
2  O=C(/C=C/c1c(OCc2cn(Cc3cccc(F)c3)nn2)ccc2ccccc12)c1ccc([N+](=O)[O-])cc1                µM              6.3
3  O=C(/C=C/c1c(OCc2cn(Cc3ccccc3F)nn2)ccc2ccccc12)c1ccc([N+](=O)[O-])cc1                µM              6.3

Now for the compound whose MIC we want.
### Prompt Identify measured MIC corresponding to `O=C(/C=C/c1c(OCc2cn(-c3cccc(C(F)(F)F)c3)nn2)ccc2ccccc12)c1ccc([N+](=O)[O-])cc1`
### Response 23

====

# System: Escherichia coli
# assay.details: Antibacterial activity against Escherichia coli MTCC 16521 after 24 hrs by serial dilution method
# Format: functional
# experimental.context: MTCC 16521, 24 h
Heads up, the class ranges for MIC are range 1: < 10 µM; range 2: ≥ 10 µM and < 30 µM; range 3: ≥ 30 µM

> print(dat)
                              smiles.string       measured.on  label.value
1  O=C(/C=C/c1c(OCc2cn(Cc3ccc(F)cc3)nn2)ccc2ccccc12)c1ccc([N+](=O)[O-])cc1  Escherichia coli      range 1

--- query ---
### Prompt Bin? `O=C(/C=C/c1c(OCc2cn(-c3ccc(F)cc3)nn2)ccc2ccccc12)c1ccc([N+](=O)[O-])cc1`
### Response range 2

====

# Test system: Escherichia coli
# assay.details: Antibacterial activity against Escherichia coli MTCC 16521 after 24 hrs by serial dilution method
# Type: functional
# experimental.context: MTCC 16521, 24 h
Labelling field: enter yes (1) if recorded MIC is less than 10 µM. Enter no (0) if it equals or exceeds that cut-off.

Take a look at these entries with their results.
> print(dat)
                              smiles.string  label.value
1  O=C(/C=C/c1c(OCc2cn(Cc3ccccc3)nn2)ccc2ccccc12)c1ccc([N+](=O)[O-])cc1       no (0)
2  C#CCOc1ccc2ccccc2c1/C=C/C(=O)c1ccc([N+](=O)[O-])cc1       no (0)
3  O=C(/C=C/c1c(OCc2cn(Cc3cccc(F)c3)nn2)ccc2ccccc12)c1ccc(Br)cc1       no (0)
4  C#CCOc1ccc2ccccc2c1/C=C/C(=O)c1ccc(OC)cc1       no (0)
5  C#CCOc1ccc2ccccc2c1/C=C/C(=O)c1ccc(Br)cc1       no (0)

### Prompt In the record for `O=C(O)c1cn(C2CC2)c2cc(N3CCNCC3)c(F)cc2c1=O` , is MIC less than 10 µM?
### Response yes (1)

### Prompt Please determine if `O=C(/C=C/c1c(OCc2cn(-c3cccc(C(F)(F)F)c3)nn2)ccc2ccccc12)c1ccc(Br)cc1` is below 10 µM in terms of MIC.
### Response no (0)

### Prompt For `O=C(/C=C/c1c(OCc2cn(Cc3ccc(F)cc3)nn2)ccc2ccccc12)c1ccc(Br)cc1` , is the recorded MIC below the cut-off of 10 µM?
### Response yes (1)

### Prompt I wonder whether `COc1ccc(C(=O)/C=C/c2c(OCc3cn(Cc4ccc(F)cc4)nn3)ccc3ccccc23)cc1` has MIC below 10 µM. Can you tell?
### Response yes (1)

====

# System: Escherichia coli
# assay.details: Antibacterial activity against Escherichia coli MTCC 16521 after 24 hrs by serial dilution method
# Type: functional
# experimental.context: MTCC 16521, 24 h
assay.readout: MIC (µM)
Please state the figure in µM; there is no need to write the unit.

Previously resolved entries follow.
> print(dat)
                              smiles.string  units.of.measure  measured.result
1  O=C(/C=C/c1c(OCc2cn(Cc3ccccc3F)nn2)ccc2ccccc12)c1ccc(Br)cc1                µM             11.6
2  COc1ccc(C(=O)/C=C/c2c(OCc3cn(Cc4ccccc4)nn3)ccc3ccccc23)cc1                µM             26.3

### Prompt Report MIC on Escherichia coli for this entry: `O=C(/C=C/c1c(OCc2cn(Cc3ccccc3)nn2)ccc2ccccc12)c1ccc(Br)cc1`
### Response 11.9
